B1: mRNA-splicing (parent)
chain: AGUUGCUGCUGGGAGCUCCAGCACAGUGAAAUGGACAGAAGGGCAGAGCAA

variants of: B1; assay: exon inclusion enrichment index; higher = more inclusion; WT1 exon 5 minigene, HEK293
reported.property: exon inclusion enrichment index

                   sequence_change  reported_value
 0           G5U G8U C9U A14C G15U          0.0169
 1      G5A U7C G8A U10C G33U G34C           0.815
 2      C6A U7A C9A U10A U17A C18G           0.498
 3                       A40G G41U           0.153
 4      C6A U7A C9A U10A G38C A39U          0.0576
 5        U3C U4C G5C C6G U7C U10C            2.61
 6           G5A U7C G8A U10C A14C            1.69
 7  G5C C6A U7C G8A U10A G46A A47C           0.439
 8           C6A U7A C9A U10A G46C           0.722
 9      G5A U7C G8A U10C A31G U32G            1.52
10   G5A C6U U7A G8U C9A U27C G28A          0.0919
11       G5C C6A U7C G8A U10A G34A          0.0333
12             U4A G5C C6G U7G C9A           0.594
13      G5C C6G U7C U10C A23U C24G            3.71
14                        C9U U10A          0.0452
15      C6A U7A C9A U10A A40G G41A            0.23
16            G5A C6G U7G C9A C24U         0.00094
17  G5C C6A U7C G8A U10A A20C G21C         0.00894
18                       A47U G48U           0.125
19        U4C G5C C6U G8C C9U U10C            2.17
20                 G5A C6G G8A C9A         0.00571

Just for reference, the RNAGym collection of RNA variant scans (doi:10.1101/gr.219683.116) is where these values come from.
